Target: Dimeric Human Ang-2FD conjugated to human IgG1 (human)
Sequence (chain, as listed by the source limits assumed): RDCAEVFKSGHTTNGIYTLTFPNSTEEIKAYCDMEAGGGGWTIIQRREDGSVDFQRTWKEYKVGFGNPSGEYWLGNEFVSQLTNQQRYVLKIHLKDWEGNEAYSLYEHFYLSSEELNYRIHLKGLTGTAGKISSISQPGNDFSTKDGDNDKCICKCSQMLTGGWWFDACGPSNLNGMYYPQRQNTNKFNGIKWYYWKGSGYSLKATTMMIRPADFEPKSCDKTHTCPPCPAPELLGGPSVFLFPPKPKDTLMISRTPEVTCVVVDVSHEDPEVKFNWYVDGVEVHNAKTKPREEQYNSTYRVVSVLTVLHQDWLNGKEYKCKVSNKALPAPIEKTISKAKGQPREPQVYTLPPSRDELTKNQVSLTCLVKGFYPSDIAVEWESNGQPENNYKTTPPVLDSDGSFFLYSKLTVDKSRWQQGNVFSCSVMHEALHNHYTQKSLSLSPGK
Test: SPR, antibody captured, room temperature
Recorded Kd for the following binders
Give just the numeric value; pM need not be written.

Record excerpt, results attached:
INSERT INTO results (binder, measured_value) VALUES
  ('H2M743N (antibody, V domains shown) VH: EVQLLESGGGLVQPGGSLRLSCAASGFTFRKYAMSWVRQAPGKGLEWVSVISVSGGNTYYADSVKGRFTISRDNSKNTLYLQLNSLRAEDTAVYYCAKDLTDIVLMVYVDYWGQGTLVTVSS VL: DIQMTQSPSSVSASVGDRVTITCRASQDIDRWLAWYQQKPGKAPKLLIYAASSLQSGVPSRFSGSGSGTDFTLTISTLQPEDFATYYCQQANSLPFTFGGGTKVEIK', 154),
  ('H1M732N (antibody, V domains shown) VH: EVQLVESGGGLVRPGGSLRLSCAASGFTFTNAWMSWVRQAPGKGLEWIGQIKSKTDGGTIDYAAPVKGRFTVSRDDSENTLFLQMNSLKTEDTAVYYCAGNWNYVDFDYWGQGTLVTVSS VL: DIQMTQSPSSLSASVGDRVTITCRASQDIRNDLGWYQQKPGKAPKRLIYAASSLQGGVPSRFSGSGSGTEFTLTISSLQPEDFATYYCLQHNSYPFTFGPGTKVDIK', 484),
  ('H1M728N (antibody, V domains shown) VH: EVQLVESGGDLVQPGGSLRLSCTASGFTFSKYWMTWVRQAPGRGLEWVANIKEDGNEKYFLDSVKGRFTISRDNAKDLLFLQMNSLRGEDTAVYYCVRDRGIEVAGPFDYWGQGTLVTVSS VL: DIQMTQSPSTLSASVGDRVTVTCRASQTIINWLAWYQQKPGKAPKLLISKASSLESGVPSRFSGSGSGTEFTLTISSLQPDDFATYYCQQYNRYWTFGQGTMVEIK', 137);

-- ask Which Kd is listed for H1M724N (antibody, V domains shown) VH: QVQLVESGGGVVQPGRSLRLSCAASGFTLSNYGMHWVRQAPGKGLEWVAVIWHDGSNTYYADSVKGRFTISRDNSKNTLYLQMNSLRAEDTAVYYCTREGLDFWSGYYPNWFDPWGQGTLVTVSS VL: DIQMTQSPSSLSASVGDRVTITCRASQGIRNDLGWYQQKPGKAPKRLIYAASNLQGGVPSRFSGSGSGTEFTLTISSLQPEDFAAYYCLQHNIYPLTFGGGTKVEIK ?
-- reply 179
